Would you mind telling me the reported pIC50 of each entry?
System: MDA-MB-231 complex spheroid viability
PROTOCOL_SUMMARY: Anticancer human tumor MDA-MB-231/ATCC cell line growth inhibition;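 also: drug exposure lasted 7 days starting on day 3 of spheroid growth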
TEST_SETTINGS: curve of first compound; second compound 0.316 µM
The value called pIC50 is obtained by taking minus log10 of the concentration in mol/L.

Q. Which pIC50 is reported with MDA-MB-231 complex spheroid viability for this entry: CCN(c1cc(-c2ccc(CN3CCOCC3)cc2)cc(C(=O)NCc2c(C)cc(C)[nH]c2=O)c1C)C1CCOCC1 + NC1CC1c1ccc(-c2cccc(O)c2)cc1 ?
A. 7.00

Q. Which pIC50 is reported with MDA-MB-231 complex spheroid viability for this entry: COc1cc(Nc2ncc3c(n2)-c2ccc(Cl)cc2C(c2c(F)cccc2OC)=NC3)ccc1C(=O)O + NC1CCC(NC2CC2c2ccccc2)CC1 ?
A. 6.75

Q. Which pIC50 is reported with MDA-MB-231 complex spheroid viability for this entry: CC1(C)CCC(CN2CCN(c3ccc(C(=O)NS(=O)(=O)c4ccc(NCC5CCOCC5)c([N+](=O)[O-])c4)c(Oc4cnc5[nH]ccc5c4)c3)CC2)=C(c2ccc(Cl)cc2)C1 + NC1CCC(NC2CC2c2ccccc2)CC1 ?
A. 5.19

Q. Which pIC50 is reported with MDA-MB-231 complex spheroid viability for this entry: CC(C)CC(NC(=O)C(Cc1ccccc1)NC(=O)c1cnccn1)B(O)O (stereo not given) + NC1CCC(NC2CC2c2ccccc2)CC1 ?
A. 8.91

Q. Which pIC50 is reported with MDA-MB-231 complex spheroid viability for this entry: COc1ccc([C@@H](O)c2cc(-c3ncnc4cc(N5CCOCC5)ccc34)c(F)cc2Cl)nn1 + NC1CC1c1ccc(-c2cccc(O)c2)cc1 ?
A. 6.76

Q. Which pIC50 is reported with MDA-MB-231 complex spheroid viability for this entry: NS(=O)(=O)OCC1CC(n2ccc3c(NC4CCc5ccccc54)ncnc32)CC1O (stereo not given) + NC1CC1c1ccc(-c2cccc(O)c2)cc1 ?
A. 7.12

Q. Which pIC50 is reported with MDA-MB-231 complex spheroid viability for this entry: Nc1ccccc1NC(=O)c1ccc(CNC(=O)OCc2cccnc2)cc1 + NC1CC1c1ccc(-c2cccc(O)c2)cc1 ?
A. 7.98

Q. Which pIC50 is reported with MDA-MB-231 complex spheroid viability for this entry: CC[C@@]1(O)C(=O)OCc2c1cc1n(c2=O)Cc2cc3c(CN(C)C)c(O)ccc3nc2-1 + NC1CCC(NC2CC2c2ccccc2)CC1 ?
A. 8.66
